# measurement.description: chemical genetic growth profiling, strain panel (AID 1159580);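 further: tested at 20 µM; growth read once vehicle control cultures reached saturation at 30 °C; 1 = growth at the plate median or of vehicle wells; lower values mean less growth of the strain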
# measurement.conditions: S. cerevisiae deletion strains, growth OD, locus YNL307C, strain MCK1, hits give low values
Screen size: about 5,500 compounds; about 2,000 (36%) were called active. Inconclusive results (about 18%) are left out. The list shows a part of the results.
List of normalized growth values.
Number, no unit, nothing else.

// below: answered compounds
>>> experimental_value("COc1ccc(Cl)cc1C(=O)NCCc1ccc(S(=O)(=O)NC(=O)NC2CCCCC2)cc1")
1.03
>>> experimental_value("CNC(=O)Oc1cccc2c1OC(C)(C)O2")
0.984
>>> experimental_value("CC(C)c1c(O)ccc2c1CCC1C(C)(C)CCC[C@]21C (stereo partly drawn)")
0.0705
>>> experimental_value("COc1ccc2c(c1)CCC1C2CCC2(C)C1C[C@@H](O)C2O (stereo partly drawn)")
0.967
>>> experimental_value("COc1ccc2c3c1OC1C(O)CC=C4C(C2)N(C)CCC431 (stereo not drawn)")
1.02
>>> experimental_value("NC(N)=NC(=O)c1nc(Cl)c(N)nc1N")
1.01
>>> experimental_value("NC(=NCCC[C@H](N)C(=O)O)N[N+](=O)[O-]")
1.01
>>> experimental_value("Oc1ccc2c(c1)OCC1(O)Cc3cc(O)c(O)cc3C21 (stereo not drawn)")
0.994

Request: So what does the record say about normalized growth for CC(=O)Oc1ccc2c(c1C(C)C)CCC1C(C)(C)CCC[C@]21C (stereo partly drawn) ?
Response: 1

Request: Reported normalized growth for CCC/C=C1\OC(=O)C2=C1CCC=C2 : what is it?
Response: 0.969

Request: For CN(C)c1nc(N)c(C(=O)N=C(N)N)nc1Cl , what is its reported normalized growth?
Response: 1.02

Request: Name the reported normalized growth value associated with the compound Cc1ccccc1OCC(O)CO (stereo not drawn)
Response: 0.994

Request: Any idea what normalized growth was measured for COc1ccc2ccc(=O)oc2c1 ?
Response: 1.03

Request: Item under review: C[C@]12CCC3c4ccc(OS(=O)(=O)O)cc4CCC3C1CC[C@H]2O (stereo partly drawn) . Reported normalized growth?
Response: 0.98

Request: Please report the recorded normalized growth for Oc1cc2c(cc1O)C1c3ccc(O)c(O)c3OCC1(O)C2 (stereo not drawn) .
Response: 0.996

Request: Any idea what its normalized growth is? The compound is CC12CCC3c4ccc(OC(=O)c5ccccc5)cc4CCC3C1CCC2O (stereo not drawn)
Response: 0.926

Request: What normalized growth value was documented for this compound, C[C@@H]([C@H](O)c1ccccc1)N(C)C ?
Response: 1.01

Request: Report normalized growth for COc1c2ccoc2cc2oc(=O)ccc12 please.
Response: 0.666

Request: Give the measured normalized growth of CC1(C)O[C@H]2CC(=O)OC[C@]23[C@H]2CC[C@@]4(C)[C@H](c5ccoc5)OC(=O)[C@H]5O[C@]54[C@]2(C)C(=O)C[C@@H]13 .
Response: 0.983

Request: Bench note: what normalized growth did C[C@]12CCC3c4ccc(O)cc4CCC3C1C[C@@H](O)[C@@H]2O (stereo partly drawn) show?
Response: 0.999

Request: Please give the measured normalized growth for this compound: COC(=O)[C@]1(C)CCC[C@]2(C)c3ccc(C(C)C)cc3C(=O)CC12 (stereo partly drawn)
Response: 0.985

Request: Please report the recorded normalized growth for CN1C(C)(C)CCCC1(C)C .
Response: 0.993

Request: Returns the measured normalized growth for the input compound. Input: NC(=O)c1ncn([C@@H]2O[C@H](CO)[C@@H](O)[C@H]2O)n1
Response: 1
